# measured.target: Sigma non-opioid intracellular receptor 1 (Cavia porcellus)
# assay.protocol: Sigma-1 binding assay was done in guinea pig membranes by labeling the binding site with [3H](+)-pentazocine
readout.name: Ki (nM)

molecule: O[C@@H]1CCN(Cc2ccc(F)cc2)C[C@H]1N1CCC2(CCc3ccccc32)CC1
readout.name: Ki
observed: 25

molecule: CN1CC2(CCN([C@@H]3CCCC[C@H]3O)CC2)c2ccccc21
readout.name: Ki
observed: 286

molecule: CN1CC2(CCN([C@@H]3CN(Cc4cccc(I)c4)CC[C@H]3O)CC2)c2ccccc21
readout.name: Ki
observed: 122

molecule: O[C@H]1CCN(Cc2cccc(I)c2)C[C@@H]1N1C2CCC1CC(c1ccccc1)C2 (stereo partly specified)
readout.name: Ki
observed: 194

molecule: O[C@@H]1CCN(Cc2cccc(I)c2)C[C@H]1N1CCC2(CCc3ccccc32)CC1
readout.name: Ki
observed: 283

molecule: O[C@@H](CN1CCC2(CCc3ccccc32)CC1)c1cccc(Br)c1
readout.name: Ki
observed: 107

molecule: O[C@H]1CCCC[C@@H]1N1C2CCC1CC(c1ccccc1)C2 (stereo partly specified)
readout.name: Ki
observed: 380

molecule: OC(CN1C2CCC1CC(c1ccccc1)C2)c1ccc(Br)cc1 (stereo unspecified)
readout.name: Ki
observed: 17.5

molecule: CN1CC2(CCN(CCCC(=O)c3ccc(F)cc3)CC2)c2ccccc21
readout.name: Ki
observed: 110

molecule: O=C(CCCN1C2CCC1CC(c1ccccc1)C2)c1ccc(F)cc1 (stereo unspecified)
readout.name: Ki
observed: 34.1

molecule: OC(CN1C2CCC1CC(c1ccccc1)C2)c1c(Cl)cccc1Cl (stereo unspecified)
readout.name: Ki
observed: 302

molecule: OC(CN1C2CCC1CC(c1ccccc1)C2)c1ccc(Cl)c(Cl)c1 (stereo unspecified)
readout.name: Ki
observed: 249

molecule: CN1CC2(CCN(C[C@H](O)c3cccc(Br)c3)CC2)c2ccccc21
readout.name: Ki
observed: 518

molecule: O[C@H]1CCN(Cc2ccc(F)cc2)C[C@@H]1N1C2CCC1CC(c1ccccc1)C2 (stereo partly specified)
readout.name: Ki
observed: 240

molecule: OC(Cc1ccc(Br)cc1)CN1C2CCC1CC(c1ccccc1)C2 (stereo unspecified)
readout.name: Ki
observed: 30.9

molecule: O=C(CN1C2CCC1CC(c1ccccc1)C2)c1ccc(F)cc1 (stereo unspecified)
readout.name: Ki
observed: 281

molecule: CN1CC2(CCN(C[C@H](O)Cc3ccc(Br)cc3)CC2)c2ccccc21
readout.name: Ki
observed: 191

molecule: O=C(CCCN1CCC2(CCc3ccccc32)CC1)c1ccc(F)cc1
readout.name: Ki
observed: 1.8

molecule: OC(CN1C2CCC1CC(c1ccccc1)C2)c1cccc(Br)c1 (stereo unspecified)
readout.name: Ki
observed: 117

molecule: O[C@@H]1CCCC[C@H]1N1CCC2(CCc3ccccc32)CC1
readout.name: Ki
observed: 21

molecule: O[C@H]1Cc2ccccc2C[C@@H]1N1C2CCC1CC(c1ccccc1)C2 (stereo partly specified)
readout.name: Ki
observed: 175

// data source = BindingDB's records for doi:10.1021/jm970326r
